EXPERIMENTAL TARGET: SMARCA4-HiBiT (Homo sapiens)
Construct: SMARCA4-HiBiT knock-in Hela monoclonal cell (CS3023226); host or cells: HeLa monoclonal knock-in line (CRISPR HiBiT knock-in at the endogenous locus, heterozygous)
Sequence (P51532 whole entry): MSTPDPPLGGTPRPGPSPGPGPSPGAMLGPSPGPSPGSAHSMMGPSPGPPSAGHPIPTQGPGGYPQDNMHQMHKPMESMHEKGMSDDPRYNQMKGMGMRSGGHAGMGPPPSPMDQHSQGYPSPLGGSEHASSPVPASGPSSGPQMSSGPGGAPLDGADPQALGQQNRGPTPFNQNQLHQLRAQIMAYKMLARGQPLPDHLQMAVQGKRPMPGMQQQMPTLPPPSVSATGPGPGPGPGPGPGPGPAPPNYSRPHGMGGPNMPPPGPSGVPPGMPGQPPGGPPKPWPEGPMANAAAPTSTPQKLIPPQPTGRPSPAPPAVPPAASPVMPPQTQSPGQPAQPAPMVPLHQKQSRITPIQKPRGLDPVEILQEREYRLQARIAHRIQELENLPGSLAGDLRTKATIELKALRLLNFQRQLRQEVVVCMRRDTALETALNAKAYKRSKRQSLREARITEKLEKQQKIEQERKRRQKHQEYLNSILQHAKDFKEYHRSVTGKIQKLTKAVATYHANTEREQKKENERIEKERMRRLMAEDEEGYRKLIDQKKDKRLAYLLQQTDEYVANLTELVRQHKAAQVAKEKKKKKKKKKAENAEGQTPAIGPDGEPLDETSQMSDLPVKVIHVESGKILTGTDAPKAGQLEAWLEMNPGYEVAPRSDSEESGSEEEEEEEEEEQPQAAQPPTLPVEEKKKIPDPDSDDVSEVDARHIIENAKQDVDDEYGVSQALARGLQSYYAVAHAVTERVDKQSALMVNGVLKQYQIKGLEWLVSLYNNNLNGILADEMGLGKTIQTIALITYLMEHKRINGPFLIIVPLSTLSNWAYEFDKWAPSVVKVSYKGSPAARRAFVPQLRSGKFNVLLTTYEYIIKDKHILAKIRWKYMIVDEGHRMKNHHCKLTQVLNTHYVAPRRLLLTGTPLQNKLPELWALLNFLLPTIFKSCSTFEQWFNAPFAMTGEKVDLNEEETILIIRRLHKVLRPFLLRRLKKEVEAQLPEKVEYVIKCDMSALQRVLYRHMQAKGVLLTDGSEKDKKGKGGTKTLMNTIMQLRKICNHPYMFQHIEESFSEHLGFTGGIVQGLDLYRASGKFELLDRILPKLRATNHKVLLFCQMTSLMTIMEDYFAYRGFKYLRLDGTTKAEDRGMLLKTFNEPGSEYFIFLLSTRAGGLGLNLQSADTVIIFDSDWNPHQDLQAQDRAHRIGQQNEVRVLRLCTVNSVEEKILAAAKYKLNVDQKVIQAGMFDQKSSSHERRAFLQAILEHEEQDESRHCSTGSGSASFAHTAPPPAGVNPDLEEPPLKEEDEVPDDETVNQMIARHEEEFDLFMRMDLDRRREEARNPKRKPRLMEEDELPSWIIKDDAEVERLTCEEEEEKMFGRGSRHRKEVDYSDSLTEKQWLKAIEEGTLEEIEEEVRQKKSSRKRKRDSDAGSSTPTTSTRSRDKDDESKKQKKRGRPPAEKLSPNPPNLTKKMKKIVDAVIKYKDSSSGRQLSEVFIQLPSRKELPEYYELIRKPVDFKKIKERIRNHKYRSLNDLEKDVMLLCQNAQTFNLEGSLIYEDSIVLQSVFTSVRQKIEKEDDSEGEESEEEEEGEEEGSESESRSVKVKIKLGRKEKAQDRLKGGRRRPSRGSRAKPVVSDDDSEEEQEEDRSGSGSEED
TEST METHOD NOTES: SMARCA4 HiBiT degradation assay in HeLa cells
Assay type: cell-based
MEASUREMENT CONTEXT: HeLa, 18 hours incubation, read-out: HeLa-HiBit-SM4 Dmax (%)
REPORTED METRIC: Dmax

Exam item: Can you look up Dmax on SMARCA4-HiBiT (Homo sapiens) for O=C1CCC(N2Cc3cc(CN4CCC(CCc5cnc(N6CCN7c8cc(-c9ccccc9O)nnc8NC[C@H]7C6)nc5)CC4)ccc3C2=O)C(=O)N1 (stereo partly shown) ?
Marked response: 75 to 85%

Exam item: Another: C[C@@H]1CN(CC2CCN(c3ccc4c(c3)C(=O)N(C3CCC(=O)NC3=O)C4=O)CC2)CCN1C(=O)N1CCN2c3cc(-c4ccccc4O)nnc3NC[C@H]2C1 (stereo partly shown)
Marked response: 50 to 75%

Exam item: Another: O=C1CCC(N2C(=O)c3cc(F)c(N4CCC(CN5CC6CCC(C5)C6CN5CCN6c7cc(-c8ccccc8O)nnc7NC[C@H]6C5)CC4)cc3C2=O)C(=O)N1 (stereo partly shown)
Marked response: 75 to 85%

Exam item: Another: O=C1CCC(N2C(=O)c3ccc(N4CCCC5(CCN(CCN6CCN7c8cc(-c9ccccc9O)nnc8NC[C@H]7C6)CC5)C4)cc3C2=O)C(=O)N1 (stereo partly shown)
Marked response: 50 to 75%

Exam item: Another: O=C1CCC(N2C(=O)c3ccc(N4CCOC(CN5CCN(C(=O)N6CCN7c8cc(-c9ccccc9O)nnc8NC[C@H]7C6)CC5)C4)cc3C2=O)C(=O)N1 (stereo partly shown)
Marked response: ≤ 50%

Every entry's value here was drawn from patent US12448389B2.
